All values here come from ChEMBL document CHEMBL3414545.

# TARGET UNDER TEST: Human immunodeficiency virus type 1 reverse transcriptase (Human immunodeficiency virus 1, UniProt Q72547)
pIC50: −log10 of the molar value.
Rule: Yes for pIC50 not less than 6, No for anything less.

Query string: For this molecule, is measured pIC50 6 or higher? `Cc1cc(C)c(Oc2nc(Nc3ccc(C#N)cc3)cn3ccnc23)c(C)c1`
Result string: Yes

Query string: What do you get for `Cc1cccc(C)c1Oc1nc(Nc2ccc(CC#N)cc2)cn2ccnc12` ?
Result string: No

Query string: Another molecule: `Cc1cc(C#N)cc(C)c1Oc1nc(Nc2ccc(Cl)cc2)cn2ccnc12`
Result string: No

Query string: Quick one: `Cc1cc(C#N)cc(C)c1Oc1nc(Nc2ccc([N+](=O)[O-])cc2)cn2ccnc12`
Result string: No

Query string: Try `Cc1cc(C)c(Oc2nc(Nc3ccc(Cl)cc3)cn3ccnc23)c(C)c1` next.
Result string: No

In the following, a different molecule is considered.
Query string: Does pIC50 meet or surpass 6 for `Cc1cc(C#N)cc(C)c1Oc1nc(Nc2ccc(C#N)cc2)cn2ccnc12` ?
Result string: Yes

----------
I'd appreciate it if you could supply selectivity ratio values for the items below.
# TEST: Selectivity index, ratio of CC50 for mock-infected human MT4 cells to EC50 for HIV1 3B infected in human MT4 cells
# Type: toxicity, cell-based
# CONDITION DETAILS: mock-infected and infected with HIV1 3B, read-out: Selectivity Index
Numbers only.

Query string: Which selectivity ratio is listed for `Cc1cc(C#N)cc(C)c1Oc1nc(Nc2ccc(CC#N)cc2)cn2ccnc12` ?
Result string: 15

Query string: What do you get for `Cc1cc(C#N)cc(C)c1Oc1nc(Nc2ccc([N+](=O)[O-])cc2)cn2ccnc12` ?
Result string: 13

Query string: Cool, now `Cc1cccc(C)c1Oc1nc(Nc2ccc(C#N)cc2)cn2ccnc12`
Result string: 5

Query string: Also `Cc1cc(C)c(Oc2nc(Nc3ccc([N+](=O)[O-])cc3)cn3ccnc23)c(C)c1` , if possible.
Result string: 25

Query string: Also `Cc1cc(Br)cc(C)c1Oc1nc(Nc2ccc([N+](=O)[O-])cc2)cn2ccnc12` , if possible.
Result string: 7

Query string: // query: `N#Cc1ccc(Nc2cn3ccnc3c(Oc3c(F)cc(F)cc3F)n2)cc1`
Result string: 5

Switching to the query record.
Query string: selectivity ratio lookup needed for `Cc1cc(Cl)cc(C)c1Oc1nc(Nc2ccc(C#N)cc2)cn2ccnc12` , thanks.
Result string: 39

----------
# TEST: Selectivity index, ratio of CC50 for mock-infected human MT4 cells to EC50 for HIV1 3B infected in human MT4 cells
# Type: toxicity, cell-based
# CONDITION DETAILS: mock-infected and infected with HIV1 3B, read-out: Selectivity Index
Please provide measured selectivity ratio for the entries that follow.

Hello, I would appreciate it if you could give selectivity ratio for each entry below.
1. Cc1cc(C)c(Oc2nc(Nc3ccc(CC#N)cc3)cn3ccnc23)c(C)c1
2. Cc1cc(C#N)cc(C)c1Oc1nc(Nc2ccc(C#N)cc2)cn2ccnc12
3. Cc1cccc(C)c1Oc1nc(Nc2ccc([N+](=O)[O-])cc2)cn2ccnc12
4. Cc1cc(C)c(Oc2nc(Nc3ccc(Cl)cc3)cn3ccnc23)c(C)c1
5. Cc1cn([C@H]2C[C@H](N=[N+]=[N-])[C@@H](CO)O2)c(=O)[nH]c1=O

Result string:
1. 13
2. ≥ 224
3. < 1
4. < 1
5. > 13100

----------
Assignment: determine reported pEC50 for the given molecules.
# Tested on: Human immunodeficiency virus 1
# TEST: Antiviral activity against HIV1 3B infected in human MT4 cells assessed as reduction in virus-induced cytopathic effect after 5 days by MTT assay
# Type: functional, organism-based
# CONDITION DETAILS: Human immunodeficiency virus 1, 3B, MT4, 120 h
Answers are plain numbers, as −log10 of the molar value.

Query string: // query pEC50 value for entry `Cc1cc(C#N)cc(C)c1Oc1nc(Nc2ccc([N+](=O)[O-])cc2)cn2ccnc12`
Result string: 5.64

Query string: And what about the molecule `Cc1cc(C)c(Oc2nc(Nc3ccc(C#N)cc3)cn3ccnc23)c(C)c1` ?
Result string: 6.59

Query string: Field entry: `Cc1cc(C)c(Oc2nc(Nc3ccc([N+](=O)[O-])cc3)cn3ccnc23)c(C)c1`
Result string: 5.89

Query string: Repeat for the following molecule: `Cc1cc(Br)cc(C)c1Oc1nc(Nc2ccc(C#N)cc2)cn2ccnc12`
Result string: 6.01

Query string: What do you have for `Cc1cc(C#N)cc(C)c1Oc1nc(Nc2ccc(CC#N)cc2)cn2ccnc12` ?
Result string: 4.72

Query string: Please do the same for `Cc1cc(Cl)cc(C)c1Oc1nc(Nc2ccc([N+](=O)[O-])cc2)cn2ccnc12` as well.
Result string: 5.34

Query string: Also Cc1cc(C#N)cc(C)c1Oc1nc(Nc2ccc(C#N)cc2)nc(N)c1Br [ETRAVIRINE] ?
Result string: 8.40

Query string: And then `Cc1cc(Br)cc(C)c1Oc1nc(Nc2ccc([N+](=O)[O-])cc2)cn2ccnc12` , what is it?
Result string: 5.40

Query string: Entry to check: `Cc1cc(Cl)cc(C)c1Oc1nc(Nc2ccc(C#N)cc2)cn2ccnc12`
Result string: 6.06

Query string: And then `Cc1cc(C#N)cc(C)c1Oc1nc(Nc2ccc(C#N)cc2)nc2[nH]ccc12` , what is it?
Result string: 9.05

# batch size: 3; output pEC50 per entry
1. N#Cc1ccc(Nc2cn3ccnc3c(Oc3c(F)cc(F)cc3F)n2)cc1
2. Cc1cc(C#N)cc(C)c1Oc1nc(Nc2ccc(C#N)cc2)cn2ccnc12
3. Cc1cc(C)c(Oc2nc(Nc3ccc(CC#N)cc3)cn3ccnc23)c(C)c1

Result string:
1. 5.14
2. 6.49
3. 5.04

Query string: Could you tell me which pEC50 is on file for `Cc1cccc(C)c1Oc1nc(Nc2ccc(C#N)cc2)cn2ccnc12` ?
Result string: 5.19

----------
# TEST: Selectivity index, ratio of CC50 for mock-infected human MT4 cells to EC50 for HIV1 3B infected in human MT4 cells
# Assay type: toxicity, cell-based
# CONDITION DETAILS: mock-infected and infected with HIV1 3B, read-out: Selectivity Index
Structures can show the parent of a compound that is named as a salt.
Would you mind telling me the reported selectivity ratio of each entry?

# annotated cases, reported selectivity ratio shown
Query string: Fill blank: measured selectivity ratio of the molecule `Cc1cccc(C)c1Oc1nc(Nc2ccc(Cl)cc2)cn2ccnc12` is ____.
Result string: < 1

Query string: Also check `Nc1ccn([C@@H]2CS[C@H](CO)O2)c(=O)n1`
Result string: > 39

Moving on to the next molecule.
Query string: Can you share its selectivity ratio? I mean this molecule: CC(C)Nc1cccnc1N1CCN(C(=O)c2cc3cc(NS(C)(=O)=O)ccc3[nH]2)CC1 [DELAVIRDINE MESYLATE]
Result string: > 67

----------
# TEST: Selectivity index, ratio of CC50 for mock-infected human MT4 cells to EC50 for HIV1 3B infected in human MT4 cells
# Assay type: toxicity, cell-based
# CONDITION DETAILS: mock-infected and infected with HIV1 3B, read-out: Selectivity Index
Could you please report measured selectivity ratio for the items listed next?

Consider the reported selectivity ratio for these compounds:
Query string: So what does the record say about selectivity ratio for `Cc1cc(C#N)cc(C)c1Oc1nc(Nc2ccc(Cl)cc2)cn2ccnc12` ?
Result string: < 1

Query string: Repeat for the following compound: `O=c1[nH]cnc2c1ncn2[C@H]1CC[C@@H](CO)O1`
Result string: > 9

Query string: `Cc1cc(Cl)cc(C)c1Oc1nc(Nc2ccc([N+](=O)[O-])cc2)cn2ccnc12` ?
Result string: 7

Query string: What would you report for `Cc1cc(Br)cc(C)c1Oc1nc(Nc2ccc(C#N)cc2)cn2ccnc12` ?
Result string: 28

Query string: Then this compound: `Cc1cccc(C)c1Oc1nc(Nc2ccc(CC#N)cc2)cn2ccnc12`
Result string: < 1

I would be grateful if you could provide selectivity ratio for each of the following entries.
1. O=[N+]([O-])c1ccc(Nc2cn3ccnc3c(Oc3c(F)cc(F)cc3F)n2)cc1
2. Cc1cc(C)c(Oc2nc(Nc3ccc(C#N)cc3)cn3ccnc23)c(C)c1

Result string:
1: < 1; 2: 126

----------
Can you tell me EC50 for the items I'm about to list?
# Tested on: Human immunodeficiency virus 1
# TEST: Antiviral activity against HIV1 3B infected in human MT4 cells assessed as reduction in virus-induced cytopathic effect after 5 days by MTT assay
# Type: functional, organism-based
# CONDITION DETAILS: Human immunodeficiency virus 1, 3B, MT4, 120 h

Some solved cases for reference:
Query string: What does the data say about its EC50? Entry: `Cc1cccc(C)c1Oc1nc(Nc2ccc([N+](=O)[O-])cc2)cn2ccnc12`
Result string: > 5.3 µM

Query string: Next molecule up: `Cc1cc(C)c(Oc2nc(Nc3ccc(Cl)cc3)cn3ccnc23)c(C)c1`
Result string: > 12 µM

Query string: // next record `Cc1cccc(C)c1Oc1nc(Nc2ccc(CC#N)cc2)cn2ccnc12`
Result string: > 156 µM

Query string: # iterate: `Cc1cc(C#N)cc(C)c1Oc1nc(Nc2ccc(Cl)cc2)cn2ccnc12`
Result string: > 13 µM

Query string: Then `Cc1cccc(C)c1Oc1nc(Nc2ccc(Cl)cc2)cn2ccnc12` ?
Result string: > 57 µM

Continuing:
Query string: Recorded EC50 of `O=[N+]([O-])c1ccc(Nc2cn3ccnc3c(Oc3c(F)cc(F)cc3F)n2)cc1` , please.
Result string: > 28 µM
